Reported kon values for a set of binders
- target_or_test_system: T1, Human IL2Rγ extracellular domain expressed with a C-terminal mouse IgG2a Fc tag (human)
- T1 construct: whole entry is the Fc-fused construct; also called hIL-2Rg-mFc
- T1 chain: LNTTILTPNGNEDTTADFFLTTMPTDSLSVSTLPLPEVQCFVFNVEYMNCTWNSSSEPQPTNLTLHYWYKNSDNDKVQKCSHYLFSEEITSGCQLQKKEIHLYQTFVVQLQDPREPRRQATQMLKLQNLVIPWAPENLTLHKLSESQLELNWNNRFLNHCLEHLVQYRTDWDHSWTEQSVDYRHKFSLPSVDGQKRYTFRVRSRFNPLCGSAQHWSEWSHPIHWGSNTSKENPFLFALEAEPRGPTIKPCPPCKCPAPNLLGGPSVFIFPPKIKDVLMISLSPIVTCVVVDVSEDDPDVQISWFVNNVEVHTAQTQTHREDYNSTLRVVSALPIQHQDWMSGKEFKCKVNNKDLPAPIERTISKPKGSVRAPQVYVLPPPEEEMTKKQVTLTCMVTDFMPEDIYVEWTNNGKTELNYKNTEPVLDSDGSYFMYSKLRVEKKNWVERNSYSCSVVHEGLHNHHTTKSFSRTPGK
- test_description: SPR Biacore 4000, anti-hFc-captured mAb, 25 C
All answers are understood in M⁻¹ s⁻¹, so give the number only.

H4H12889P (antibody, human IgG4 S228P, kappa, V domains shown, fully human anti-IL2Rgamma mAb, human IgG4 Fc; also called REGN7257) VH: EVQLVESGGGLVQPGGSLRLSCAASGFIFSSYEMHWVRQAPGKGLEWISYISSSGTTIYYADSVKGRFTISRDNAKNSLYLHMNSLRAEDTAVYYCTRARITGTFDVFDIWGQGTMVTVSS VL: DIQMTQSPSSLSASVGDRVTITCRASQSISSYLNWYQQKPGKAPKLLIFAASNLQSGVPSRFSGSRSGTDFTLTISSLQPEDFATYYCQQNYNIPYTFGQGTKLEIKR    347000

Please look at this binder and report its kon: H4H13541P (antibody, human IgG4 S228P, kappa, V domains shown, fully human anti-IL2Rgamma mAb, human IgG4 Fc) VH: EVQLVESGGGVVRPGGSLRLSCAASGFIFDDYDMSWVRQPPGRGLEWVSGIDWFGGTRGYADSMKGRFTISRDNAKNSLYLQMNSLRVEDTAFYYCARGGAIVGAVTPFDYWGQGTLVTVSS VL: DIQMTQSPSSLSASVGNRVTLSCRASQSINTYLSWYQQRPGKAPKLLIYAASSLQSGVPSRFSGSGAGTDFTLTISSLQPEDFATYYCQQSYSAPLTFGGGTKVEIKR
49200

Supply kon value. Item: H4H12858P (antibody, human IgG4 S228P, kappa, V domains shown, fully human anti-IL2Rgamma mAb, human IgG4 Fc; also called REGN9433) VH: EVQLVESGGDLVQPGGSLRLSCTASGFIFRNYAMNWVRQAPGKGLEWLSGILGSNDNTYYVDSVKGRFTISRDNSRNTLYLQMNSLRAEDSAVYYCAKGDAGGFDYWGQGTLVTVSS VL: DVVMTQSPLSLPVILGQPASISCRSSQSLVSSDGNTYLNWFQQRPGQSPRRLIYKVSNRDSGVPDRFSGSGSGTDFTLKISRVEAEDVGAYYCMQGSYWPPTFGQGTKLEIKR
116000

Write down kon measured for item H4H12886P (antibody, human IgG4 S228P, kappa, V domains shown, fully human anti-IL2Rgamma mAb, human IgG4 Fc) VH: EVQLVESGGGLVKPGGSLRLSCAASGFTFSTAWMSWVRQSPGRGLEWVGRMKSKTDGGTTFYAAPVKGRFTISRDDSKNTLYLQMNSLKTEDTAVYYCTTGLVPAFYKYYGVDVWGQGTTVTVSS VL: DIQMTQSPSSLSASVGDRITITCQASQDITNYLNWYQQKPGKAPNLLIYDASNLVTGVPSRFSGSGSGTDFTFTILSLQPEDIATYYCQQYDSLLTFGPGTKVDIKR
53400
